Entry source: patent US20250250357A1

Biological target: T1, human MSLN-R1-his protein (human, UniProt Q13421 296-390)
T1 construct: Made in HEK293E cells, purified on nickel column; also called hMSLN-R1-his; human MSLN-R1 protein; not shown: His tag
T1 chain: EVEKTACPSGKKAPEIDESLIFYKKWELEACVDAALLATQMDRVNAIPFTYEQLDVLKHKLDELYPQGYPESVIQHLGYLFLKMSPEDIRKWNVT
Experiment: ELISA, coated antigen, antibody 2 nM
observation-type: OD450

binder: S009-F7.53.2 chimeric antibody (antibody, human IgG1, kappa, V domains shown, Human-murine chimeric antibody, human IgG1/kappa constant regions) VH: EVQLQQSGPELVKPGASVKIPCKTSGYTFTDYNMDWVKQSHGKSLEWIGDINPNTDGAIYNQKFQNKATLTVDKSSSTAYMELRSLTSEDTAVYYCTRRKLGRKFFDYWGQGTTLTVSS VL: QIVLTQSPAIMSASPGEQVTMTCSASSSVGYMNWYQQKPGSSPRLLIYDTSNLASGVPVHFSGSGSGTSYSLTISRMEAAFAATYYCQQWYVYPYTFGGGTKLEIKR
assay-result: 0.05
